These data points were gathered from the supplement of paper PMC9170038.

- System: K4 kissing-loop RNA reporter;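 note: bound reporter read as fluorescence of individual clusters on recovered sequencing chips by microscopy, with normalized cluster intensities fitted with a binding model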
- assay.protocol: apparent KD of K4 kissing-loop reporter; higher = weaker reporter binding
- conditions: Eterna round: R107; input ligand: theophylline 20 uM
# apparent KD of K4 kissing-loop reporter annotations
Respond numerically; units are nM and should not be typed.

Return value of apparent KD of K4 kissing-loop reporter for input UUAGGCUCUCUUCUCAUUCGCUUAACCGAUACCAGAGUAAGCCCUCUCCCUUGGCAGCGGAGUGAUGUUCCGAGUGUUGAUAUUG [theeternabot_exclusion_KL_Theo_A_44] , no commentary.
130

Return value of apparent KD of K4 kissing-loop reporter for input CUCGAGUGAUGUUCGAUUAUUUAUACAGAUACCAGUGAAUUUUAACACCCUUGGCAGCUGGUUGUAUCAUUUUUUUUUACUAAAG [JR_ExcTheophyA_Sub008] , no commentary.
225

Return value of apparent KD of K4 kissing-loop reporter for input GCUAUGGUAGGAAGGAGCGCUUGCUCGGUCAUAAGAGUGAUGUUCGAGACCGAGCAUUUAUAGCAGGUAGGUCGCCUACUAUAGC [Arginine B K4 7] , no commentary.
256

Return value of apparent KD of K4 kissing-loop reporter for input GGGCAUCAGGCUGAUACCAGUGAUAAAGGAUAAGAGACAGGGAGUGAUGUUCCCUUUACCCACCCUUGGCAGCAGUUUAAGUUUG [Exclusion Theophylline B GF 16] , no commentary.
94.3

Return value of apparent KD of K4 kissing-loop reporter for input UGCAGUGAUGUUGCUAUUUUUCUUGAUUAACGAGGACCGGUACGGCCGCCACUCGAUUUCUCUCUAAUCCAGUAUGUUGUUUGAU [whbob_EX_Tryp_A_t4] , no commentary.
142

Further cases:
Return value of apparent KD of K4 kissing-loop reporter for input UUCAGACUACUACUAUUUAGUAGUAUAUACUAGGAUAUCCAGAUAUGGAGAAGGAGUGAUGUUCCUUAGUAGUAGUGAAUUAAAU [KL-XFMN-A6] , no commentary.
144

====

- Test system: MS2 coat protein
- assay.protocol: apparent KD of MS2 coat protein; designed switch direction (-1 OFF switch, 1 ON switch): -1; higher = weaker reporter binding
- conditions: input ligand: none
measured.parameter: apparent KD of MS2 coat protein (nM)
Respond numerically; units are nM and should not be typed.

Some entries whose results are on file:
Fill: apparent KD of MS2 coat protein (MS2 coat protein) for this sequence GCUGGACGAGGAUAUACAAUCGUGCUUCGGCACGUAAGGUCACAUGAGGAUCACCCAUGUAGAAGGUGUCCAGC [E2/2-B2] (Eterna round: R97, puzzle: Exclusion 2)
18.3

Fill: apparent KD of MS2 coat protein (MS2 coat protein) for this sequence ACUUAUUGAGGAUAUACAUUAAUUUACAUGAGGAUCACCCAUGUUCUUCAAUGUAUAUAUGUAGAAGGCAGAAGAA [JL-ex5-4.30 Malcolm mod] (Eterna round: R97, puzzle: Exclusion 5)
14

Fill: apparent KD of MS2 coat protein (MS2 coat protein) for this sequence AGGUCCUUCUGGACACAUGAGGAUCACCCAUGUGAGGUCAGCGAGGAUAUCGGUCAAUAAUGUGACGAGAAGGCGCGGACCGAU [Ex NG3 #58] (Eterna round: R96, puzzle: Exclusion NG 3)
19.1

Fill: apparent KD of MS2 coat protein (MS2 coat protein) for this sequence UAUCCGACAGGAUAUACAUGAGGAUCACCCAUGUACCCACUGUAUGUAACCUCAAACUGUAGAAGGGUUGAUAU [Eternabot (L1) Solution 18] (Eterna round: R97, puzzle: Exclusion 3)
28.6

Further cases:
Fill: apparent KD of MS2 coat protein (MS2 coat protein) for this sequence CAGUCGAUAAGAUCAAUUAAUUAACAUGAGGAUCACCCAUGUGAGGAUAUCAGCUCGUUUAGAGCUGAGAAGGCACAACGACUG [ExNG3/17-A2] (Eterna round: R96, puzzle: Exclusion NG 3)
37.9
